Tested on: RAW264.7
TEST_PROTOCOL: Antiinflammatory activity against mouse RAW264.7 cells assessed as inhibition of IFN-gamma and LPS-induced COX2 production preincubated for 2 hrs followed by IFN-gamma and LPS stimulation and measured after 16 hrs by spectrophotometric analysis
Type: functional, cell-based
Each record here notes measured IC50.
Give a bare numeral; the unit µg/mL is implied.

Recorded IC50, per entry:
COc1ccc2c(c1)c(CC(=O)O)c(C)n2C(=O)c1ccc(Cl)cc1 [INDOMETHACIN]: 26.2
O=C(/C=C/CCc1ccc(O)c(O)c1)CCc1ccc(O)c(O)c1 [DEHYDROHIRSUTANONOL]: 25
O=C(CCc1ccc(O)c(O)c1)C[C@@H](O)CCc1ccc(O)c(O)c1 [HIRSUTANONOL]: 25.7
O=C(CCc1ccc(O)c(O)c1)C[C@H](CCc1ccc(O)c(O)c1)O[C@@H]1O[C@H](CO)[C@@H](O)[C@H](O)[C@H]1O: 33.7
Oc1ccc(CCCC[C@@H](O)CCc2ccc(O)c(O)c2)cc1O: 45.3

*Q* Which value of IC50 has been reported for OC[C@@]1(O)CO[C@@H](OC[C@H]2O[C@@H](O[C@H](CCCCc3ccc(O)c(O)c3)CCc3ccc(O)c(O)c3)[C@H](O)[C@@H](O)[C@@H]2O)[C@@H]1O in the records?
*A* 34.2

###

TEST_PROTOCOL: Antiinflammatory activity in mouse N11 cells assessed as inhibition of LPS-induced TNFalpha level preincubated for 1 hrs followed by LPS stimulation and measured after 24 hrs by ELISA
Assay type: functional, cell-based
Entries and their measured pIC50 follow.
Bear in mind: pIC50 is minus log10 of a mol/L concentration; give just that figure.

Reference set, count: 4
COc1ccc(C/C=C/CCCCc2ccc(O)c(O)c2)cc1: 4.63
COc1ccc(C/C=C/CCCCc2ccc(OC)c(OC)c2)cc1: 5.37
COc1ccc(C/C=C/CCCCc2ccc(O)cc2)cc1: 4.53
COc1ccc(C/C=C/CCCCc2cccc(O)c2)cc1: 4.53

For the next question, use this molecule.
*Q* Entry O=c1cc(-c2ccc(O)cc2)oc2cc(O)cc(O)c12 : reported pIC50 = ?
*A* 4.70

###

Test system: RAW264.7
TEST_PROTOCOL: Antiinflammatory activity in mouse RAW264.7 cells assessed as inhibition of LPS-induced TNFalpha production at 100 uM preincubated for 2 hrs followed by LPS stimulation and measured after 24 hrs by ELISA
Assay type: functional
EXPERIMENTAL_CONTEXT: time 26 hrs
Collected inhibition at 100 µM values appear next to each entry.
Kindly provide the numeric value in % only, without the unit symbol.

Reference set (3 entries):
COc1cc(CC[C@H](O)C[C@H](O)[C@@H](O)Cc2ccc(O)cc2)ccc1O: 39
COc1cc([C@H]2C[C@H](O)C[C@@H]([C@@H](O)Cc3ccc(O)cc3)O2)ccc1O: 41
COc1cc(CC[C@@H](C[C@H](O)[C@@H](O)Cc2ccc(O)cc2)O[C@@H]2OC[C@@H](O)[C@H](O)[C@H]2O)ccc1O: 36

Consider the record given below.
*Q* // map COc1cc(CC[C@H](O)C[C@H](O)[C@@H](O)Cc2ccc(O)c(OC)c2)ccc1O to recorded inhibition at 100 µM (system: RAW264.7)
*A* 34

###

Each entry below carries its reported inhibition at 3 µM.
Tested on: RAW264.7
TEST_PROTOCOL: Antiinflammatory activity in mouse RAW264.7 cells assessed as inhibition of LPS-induced IL-6 production at 3 uM preincubated for 2 hrs followed by LPS stimulation and measured after 24 hrs by ELISA
Assay type: functional
EXPERIMENTAL_CONTEXT: time 26 hrs
I only need the number, in %, no unit after it.

Before answering, review these 3 worked examples.
COc1cc(CC[C@H](O)C[C@H](O)[C@@H](O)Cc2ccc(O)c(OC)c2)ccc1O: 43
COc1cc([C@H]2C[C@H](O)C[C@@H]([C@@H](O)Cc3ccc(O)cc3)O2)ccc1O: 40
COc1cc(CC[C@@H](C[C@H](O)[C@@H](O)Cc2ccc(O)cc2)O[C@@H]2OC[C@@H](O)[C@H](O)[C@H]2O)ccc1O: 43

*Q* What measured inhibition at 3 µM is associated with COc1cc(CC[C@H](O)C[C@H](O)[C@@H](O)Cc2ccc(O)cc2)ccc1O on RAW264.7?
*A* 57
